Entries and their binding signal values follow.
- ASSAY SYSTEM: HIF-1 (HIF-1alpha/HIF-1beta (ARNT) heterodimer) (Homo sapiens?, UniProt Q16665;P27540 Q16665:1-826,P27540:2-789)
- Sequence (Q16665 whole entry, chain 1 of 2): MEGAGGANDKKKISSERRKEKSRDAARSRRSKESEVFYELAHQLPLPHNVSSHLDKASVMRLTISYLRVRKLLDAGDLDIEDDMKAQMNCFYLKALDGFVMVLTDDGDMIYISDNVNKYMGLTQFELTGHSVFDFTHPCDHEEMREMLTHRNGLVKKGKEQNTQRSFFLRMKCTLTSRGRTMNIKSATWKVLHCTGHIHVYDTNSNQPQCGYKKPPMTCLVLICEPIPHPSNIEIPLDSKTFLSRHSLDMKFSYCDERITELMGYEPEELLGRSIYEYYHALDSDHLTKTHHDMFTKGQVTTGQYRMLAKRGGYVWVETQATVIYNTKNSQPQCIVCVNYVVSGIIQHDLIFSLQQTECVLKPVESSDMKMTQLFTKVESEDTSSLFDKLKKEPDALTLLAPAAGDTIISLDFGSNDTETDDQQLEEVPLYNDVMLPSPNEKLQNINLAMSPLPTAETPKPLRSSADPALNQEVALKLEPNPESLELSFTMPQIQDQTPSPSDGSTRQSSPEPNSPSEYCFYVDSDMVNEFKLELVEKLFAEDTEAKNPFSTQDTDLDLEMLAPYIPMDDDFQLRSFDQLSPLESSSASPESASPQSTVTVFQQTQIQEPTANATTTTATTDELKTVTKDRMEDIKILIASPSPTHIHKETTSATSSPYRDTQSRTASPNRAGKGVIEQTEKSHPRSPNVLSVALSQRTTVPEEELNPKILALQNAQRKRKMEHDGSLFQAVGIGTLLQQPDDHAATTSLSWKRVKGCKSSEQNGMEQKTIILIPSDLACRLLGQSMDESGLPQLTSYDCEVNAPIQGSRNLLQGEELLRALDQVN
- Sequence (P27540 2-789, chain 2 of 2): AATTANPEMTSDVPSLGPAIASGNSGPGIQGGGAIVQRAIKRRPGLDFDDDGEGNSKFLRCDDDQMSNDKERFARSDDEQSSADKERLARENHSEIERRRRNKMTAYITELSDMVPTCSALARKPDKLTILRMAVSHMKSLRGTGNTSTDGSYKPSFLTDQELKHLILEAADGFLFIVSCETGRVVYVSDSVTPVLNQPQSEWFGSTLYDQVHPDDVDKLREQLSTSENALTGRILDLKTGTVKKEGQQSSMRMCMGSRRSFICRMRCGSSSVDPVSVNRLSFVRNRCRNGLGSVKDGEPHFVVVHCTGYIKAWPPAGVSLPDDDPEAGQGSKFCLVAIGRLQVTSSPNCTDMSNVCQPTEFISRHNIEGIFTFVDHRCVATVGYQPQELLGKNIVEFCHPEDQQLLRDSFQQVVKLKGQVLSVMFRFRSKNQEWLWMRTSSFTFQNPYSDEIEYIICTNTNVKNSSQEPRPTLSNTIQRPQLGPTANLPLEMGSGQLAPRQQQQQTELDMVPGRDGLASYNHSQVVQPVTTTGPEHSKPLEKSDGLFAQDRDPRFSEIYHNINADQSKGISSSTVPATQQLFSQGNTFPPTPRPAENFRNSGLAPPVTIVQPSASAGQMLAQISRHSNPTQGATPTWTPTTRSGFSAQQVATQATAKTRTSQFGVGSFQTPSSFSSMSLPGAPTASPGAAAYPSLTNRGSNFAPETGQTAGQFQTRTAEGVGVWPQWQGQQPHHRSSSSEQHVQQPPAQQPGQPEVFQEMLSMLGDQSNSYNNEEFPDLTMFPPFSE
- TEST: competition; TransAM
- RECORDED CONDITIONS: protein: extract; tags: none (endogenous, nuclear extract)
MEASUREMENT KIND: binding signal (ratio)

INSERT INTO measurements (binder, numeric_readout) VALUES
  ('decoy 893 (dsDNA) DNA 1: CACGAGCGTACGTGCCTCAGG DNA 2: CCTGAGGCACGTACGCTCGTG', 0.94),
  ('decoy 867/868 (dsDNA) DNA 1: TCCGTACGTGCTGCAC DNA 2: GTGCAGCACGTACGGA', 2.63),
  ('decoy 865/866 (dsDNA) DNA 1: AGCAGACGTGCAGGCA DNA 2: TGCCTGCACGTCTGCT', 2.56),
  ('decoy 813/814 (dsDNA) DNA 1: GCCCTACGTGCTGTCTCACACAGC DNA 2: GCTGTGTGAGACAGCACGTAGGGC', 4.6),
  ('decoy 837/838 (dsDNA) DNA 1: AGGCAACGTGCAGCCG DNA 2: CGGCTGCACGTTGCCT', 3.74),
  ('decoy 849/850 (dsDNA) DNA 1: GCCTACACGTGGGTTCCC DNA 2: GGGAACCCACGTGTAGGC', 2.66);

Taken from patent US20050215503.
